- assayText: Porcine-PK study of BuMA Supreme stent (blood, myocardium, coronary artery tissue)
- Assay type: in vivo, Yucatan Miniature Swine
- cond: Yucatan miniature swine, pig, coronary artery, stented segment, other: drug-eluting stent implanted in coronary arteries, study day 3; read-out: Arterial drug concentration
endpoint: concentration at 3 days (ng/g)
Return type: number; implicit unit ng/g.

Task: For the molecule CO[C@H]1C[C@@H]2CC[C@@H](C)[C@@](O)(O2)C(=O)C(=O)N2CCCC[C@H]2C(=O)O[C@H]([C@H](C)C[C@@H]2CC[C@@H](O)[C@H](OC)C2)CC(=O)[C@H](C)/C=C(\C)[C@@H](O)[C@@H](OC)C(=O)[C@H](C)C[C@H](C)/C=C/C=C/C=C/1C [Rapamycin, Sirolimus (rapamycin)] , report concentration at 3 days.
Output: 2270
